- study-system: T1, human MSLN-R3 protein (human, UniProt Q13421 487-598)
- T1 construct: also called hMSLN-R3
- T1 sequence (Q13421 495-606, form in doubt): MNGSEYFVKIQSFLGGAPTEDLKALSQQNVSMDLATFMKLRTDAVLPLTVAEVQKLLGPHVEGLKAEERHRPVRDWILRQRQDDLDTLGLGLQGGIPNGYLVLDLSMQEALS
- assay-method-text: ELISA on coated antigen, antibody 0.01 nM
assay-readout: OD450 (OD450)
The response must be a number in OD450 with no trailing unit.

So, Tab110 (scFv, not shown: small tags and cut ends, also called YP218 VH-(G4S)3-VL-his antibody; positive control) scFv: QQQLEESGGGLVKPEGSLTLTCKASGFDLGFYFYACWVRQAPGKGLEWIACIYTAGSGSTYYASWAKGRFTISKASSTTVTLQMTSLAAADTATYFCARSTANTRSTYYLNLWGPGTLVTVSSGGGGSGGGGSGGGGSDVVMTQTPASVSEPVGGTVTIKCQASQRISSYLSWYQQKPGQRPKLLIFGASTLASGVPSRFKGSGSGTEYTLTISDLECADAATYYCQSYAYFDSNNWHAFGGGTEVVV ? Its OD450 was 0.04
